Target: T1, CD73 on the surface of human cells (human, UniProt P21589 27-549)
T1 construct: whole, on cells; The cell line of each value is named under assay or readout; also called CD73 on the surface of tumor cells; CD73 enzyme on the surface of MDA-MB-231 cells
T1 sequence (looked up): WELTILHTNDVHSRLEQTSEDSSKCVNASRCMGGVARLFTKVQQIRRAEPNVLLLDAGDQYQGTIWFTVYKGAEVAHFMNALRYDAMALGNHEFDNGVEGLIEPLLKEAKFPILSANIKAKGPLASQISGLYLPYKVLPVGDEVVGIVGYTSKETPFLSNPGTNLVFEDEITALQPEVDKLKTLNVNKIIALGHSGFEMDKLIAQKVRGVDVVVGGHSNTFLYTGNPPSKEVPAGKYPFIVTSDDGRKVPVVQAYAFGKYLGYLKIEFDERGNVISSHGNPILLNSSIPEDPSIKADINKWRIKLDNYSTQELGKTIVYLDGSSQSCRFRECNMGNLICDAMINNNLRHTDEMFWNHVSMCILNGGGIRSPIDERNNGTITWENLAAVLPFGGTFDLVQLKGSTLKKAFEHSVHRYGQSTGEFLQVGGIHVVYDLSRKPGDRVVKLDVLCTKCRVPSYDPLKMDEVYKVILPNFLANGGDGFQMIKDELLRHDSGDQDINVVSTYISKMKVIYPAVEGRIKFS
Assay: flow cytometry on NCI-H1373 cells
observation type: EC50 (µg/mL)

binder: chimeric nanobody 3-D7 (Fc fusion, Human-alpaca chimeric antibody (VHH on hIgG1 Fc); Only the VHH is tied to the tested molecule; 37-39 exist for 3-D7-FC1/FC2/FC3; also called original antibody 3-D7) VHH: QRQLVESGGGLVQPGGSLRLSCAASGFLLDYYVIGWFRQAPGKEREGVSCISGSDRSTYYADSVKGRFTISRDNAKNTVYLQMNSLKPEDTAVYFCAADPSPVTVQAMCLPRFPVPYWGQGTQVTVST
reported measurement: 0.227

binder: chimeric nanobody 5-E11 (Fc fusion, Human-alpaca chimeric antibody (VHH on hIgG1 Fc); Only the VHH is tied to the tested molecule; also called original antibody 5-E11) VHH: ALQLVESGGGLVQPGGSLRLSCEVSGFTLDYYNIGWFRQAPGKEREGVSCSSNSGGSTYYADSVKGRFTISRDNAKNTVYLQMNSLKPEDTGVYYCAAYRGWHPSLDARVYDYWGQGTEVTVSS
reported measurement: 0.135

a. chimeric nanobody 4-B02 (Fc fusion, Human-alpaca chimeric antibody) VHH: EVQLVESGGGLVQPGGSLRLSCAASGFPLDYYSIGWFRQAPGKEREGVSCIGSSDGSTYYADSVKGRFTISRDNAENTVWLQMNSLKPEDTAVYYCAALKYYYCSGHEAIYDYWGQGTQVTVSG
b. chimeric nanobody 4-D04 (Fc fusion, Human-alpaca chimeric antibody) VHH: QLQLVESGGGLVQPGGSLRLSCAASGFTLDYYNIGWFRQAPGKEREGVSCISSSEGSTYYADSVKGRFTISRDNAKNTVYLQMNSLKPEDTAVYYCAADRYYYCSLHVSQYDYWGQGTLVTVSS
**Q:** Response body: label of entry with the larger EC50; valid values a , b . Please reply using the label of the selected record.
**A:** b
